Tested on: NCI-H460 lung
Assay: NCI tumour cell line growth inhibition, 48 h
Measured metric: TGI

// query Recall the reported TGI of CC1(C)OC2CN(C(=O)OCc3ccccc3)C(CO)C2O1 (centres undefined) when tested on NCI-H460 lung.
// result > 100 µM

// query Provide NCI-H460 lung TGI reading for `O=[N+]([O-])C(=C/C1CCCCC1)/C(=C\C1CCCCC1)[N+](=O)[O-]` .
// result 12.5 µM

// query GET TGI where system = NCI-H460 lung and item = `Nc1ncc(-c2ccc(C(F)(F)F)cc2)c(NC2CCCCCC2)n1`
// result > 100 µM

// query Fill in: TGI on NCI-H460 lung, entry `COC[C@H]1OC(=O)c2coc3c2[C@@]1(C)C1=C(C3=O)[C@@H]2CCC(=O)[C@@]2(C)C[C@H]1OC(C)=O`
// result > 100 µM

* * *

Tested on: SNB-19 CNS
Assay: NCI tumour cell line growth inhibition, 48 h
Give GI50 for every item shown.

// query Supply GI50 measured with SNB-19 CNS for Clc1cc(Cl)cc(N2N=C(c3cccc(Nc4ccncc4)c3)CC2c2ccc(Br)cc2)c1 (stereo not given) .
// result 1630 nM

// query Send back SNB-19 CNS GI50 of `O=C(Nc1cc(Cl)ccc1O)c1cccc(NC2=C(Cl)C(=O)N(Cc3ccccc3)C2=O)c1` only.
// result 48400 nM

// query Fetch value of GI50 on SNB-19 CNS for `COc1cccc(/C=C/C(=O)c2cc3c(N)c(C(=O)Nc4cccc(Cl)c4C)sc3nc2C)c1` .
// result 1290 nM

// query Retrieve GI50 on SNB-19 CNS; query `Cc1nc(Nc2ccc(F)c(Cl)c2)sc1C(=O)O`
// result 1930 nM

// query Enter measured GI50, system SNB-19 CNS, for the compound shown: `CCOC(=O)C(Cc1c[nH]c2cc([N+](=O)[O-])ccc12)(NC(C)=O)C(=O)OCC`
// result 148000 nM

* * *

System: OVCAR-8 ovarian
Experiment: NCI tumour cell line growth inhibition, 48 h
Measured metric: TGI

// query Identify the reported TGI for the following entry. `Cc1ccnc2c1c(=O)c1ccccc1n2C`
// result > 100 µM

// query Look up and state reported TGI for `O=C(c1cc(-c2cc3c(cc2C(=O)N2Cc4ccccc4C[C@H]2CN2CCOCC2)OCO3)n2c1CCCC2)N(c1ccccc1)c1ccc(O)cc1`
// result > 100 µM

// query Give me measured TGI, please, for this compound: `CNC(=O)CNC(=O)CCC(=O)N(C)C`
// result > 100 µM

// query Entry `COc1ccc(NC(C)=O)c(C(=O)CCNC(C)=O)c1` needs its TGI filled in; supply it.
// result > 100 µM

// query Given CNC1NC(=O)c2ccccc2N1Cc1ccc(F)cc1 (configuration not stated) , respond with its TGI.
// result > 100 µM

// query Using known records, supply TGI for `CC1(C)N=C(N)N=C(N)N1c1ccc(CCCCc2ccc(Cl)cc2Cl)cc1`
// result 16.1 µM

// query Please list TGI recorded for the compound `CC(C)(C)OC(=O)/C=C/C(=O)O/C=C/[N+](=O)[O-]`
// result > 100 µM

* * *

Tested on: SK-MEL-5 melanoma
Assay: NCI tumour cell line growth inhibition, 48 h
Measured metric: TGI

// query For the compound `CCOC(=O)c1cc2cc(CSc3ccccc3)ccc2oc1=O` , give its measured TGI value.
// result > 100 µM

// query Specify TGI for `COc1cc2cnc3c(c2cc1OC)Cc1cc2c(cc1-3)OCO2` and stop.
// result 5.39 µM

// query Identify measured TGI associated with COC1CC(OS(=O)(=O)c2ccc(C)cc2)C(OS(=O)(=O)c2ccc(C)cc2)C(COS(=O)(=O)c2ccc(C)cc2)O1 (stereo unspecified)
// result 25.7 µM

// query # return recorded TGI for entry `CCS(=O)(=O)c1ccc(OC)c(Nc2nccc(N(C)c3ccc4c(C)[nH]nc4c3)n2)c1`
// result 8.38 µM

// query Item `Cn1c2ccccc2n2c3ccccc3c(=S)c(C#N)c12` : provide TGI
// result > 100 µM

// query Give a short answer stating reported TGI for `O=[N+]([O-])c1cccc2nc3ccccc3c(NCCNCCO)c12` .
// result 0.00391 µM

// query Consider the compound CCC(C)/C=C(C)/C=C/C(=O)c1c(O)c(-c2ccc(O)cc2)c[nH]c1=O (stereo unspecified) . State its measured TGI.
// result 16.7 µM

// query Report TGI, nothing else, for this compound: `CC(=O)Oc1cccc2c1C(=O)C(Br)(Br)CCC2`
// result 14.4 µM

// query Return the recorded TGI value; entry: `CO/N=C1/NC(=O)/C(=C/c2ccc3ncccc3c2)S1`
// result > 25 µM

// query // Input: `O=C(c1ccc(Cl)cc1)N(C(=S)N1CCN(c2ccccc2)CC1)c1ccccc1` . Output its TGI only.
// result > 100 µM

// query Identify the reported TGI for the following entry. `CSc1nc(-c2cc3c(c(SC)n2)CCC3)cc2c1CCC2`
// result > 100 µM

// query Supply TGI value. Item: CSCCCNC(=O)c1csc([C@@H](CSC)NC(=O)CCNC(=O)[C@@H](NC(=O)OCC(Br)(Br)Br)C(C)O)n1 (stereo partly specified)
// result > 100 µM

// query Consider the compound `CCc1nc2ccc(Cc3ccc(C(=O)NO)cc3)cc2c(=O)n1CCc1ccccc1` . State its measured TGI.
// result 2.1 µM

// query Provide one value: measured TGI of `COc1ncc(C#CC(=O)c2ccccc2OC)c(OC)n1`
// result 5.85 µM

// query Input `CN(C)c1ccc(/C=C2\N=C(c3ccc(N)cc3)OC2=O)cc1` , output reported TGI.
// result > 100 µM

// query Dear colleague, please send me the reported TGI for `COc1cc(/C=C/C(=O)O)ccc1O` when you can.
// result > 100 µM

// query Answer with reported TGI of `Cc1cccc(C)c1NC(=O)C(=O)CC(=O)CO`
// result > 100 µM

// query Return the recorded TGI value; entry: `Cc1ccc(C(=O)N/N=C/c2cccc(Oc3ccccc3)c2)cn1`
// result > 100 µM

// query Give recorded TGI. `N#C[C@](CO)(NC(=O)OCc1ccccc1)C(F)F`
// result > 100 µM

// query Report TGI for `Nc1ccccc1Sc1ccc(Cl)cc1`
// result 32 µM

// query // fetch TGI given entry O=C1NC(N/N=C/C(O)C(O)C(O)C(O)CO)=N/C1=C\c1cccs1 (stereo unspecified)
// result > 100 µM

// query Please give measured TGI of the following entry: CC1OC(OC2C(Oc3cc(O)c4c(=O)cc(-c5ccc(O)cc5)oc4c3)OC(CO)C(O)C2O)C(O)C(O)C1O (stereo unspecified)
// result > 100 µM

// query Given `CC(=O)OC[C@@H]1[C@H]2CC(=O)O[C@H]2C[C@H]1OC(C)=O` , respond with its TGI.
// result > 100 µM

// query Return reported TGI. Input compound: `C#CCSc1cnc2ccccc2c1Sc1c[nH]c2ccccc2c1=O`
// result 44.8 µM

// query Please indicate TGI recorded for N#CSCC1CC(O)(c2ccccc2)C(c2ccccc2)C(c2ccc(F)cc2)O1 (stereo unspecified)
// result 17.2 µM

// query Provide one value: measured TGI of COC1=C(C(=O)OC(C)(C)C)[C@]2(C)C(C(=O)OC(C)(C)C)C(OC)=C(C(=O)OC(C)(C)C)[C@]2(C)C1C(=O)OC(C)(C)C (stereo partly specified)
// result > 100 µM

// query Assign TGI to the following record: `CCOC(=O)C#Cc1ccc(C#CC(=O)OCC)cc1`
// result > 27.4 µM

// query Fill in TGI for record `Cc1nn2c(/C=C3/C(=O)Nc4ccccc43)c(-c3ccc(Cl)cc3)nc2s1`
// result > 50 µM

// query State, in one line, measured TGI of `CCOC(=O)/C=C/[C@H](O[Si](c1ccccc1)(c1ccccc1)c1ccccc1)C(C)(C)C`
// result > 31.6 µM

// query // Input: `C=C1CC(CNc2cc(Cl)nc(N)n2)C1` . Output its TGI only.
// result > 100 µM

// query Consider the compound `CN(C)CCCNC(=O)CNC(=O)c1cc(NC(=O)c2cc(NC(=O)c3cc(NC(=O)CCNC(=O)c4cc(NC(=O)c5cc(NC(=O)c6nccn6C)cn5C)cn4C)cn3C)cn2C)cn1C` and give its recorded TGI.
// result > 100 µM

// query Provide TGI value for the following compound: `Cc1cc(N/N=C/c2nc(-c3ccccc3)oc2C)c2cc(Cl)ccc2n1`
// result 3.2 µM

// query Provide one value: measured TGI of CO/N=C1/C(n2[nH]c(=O)n(-c3ccccc3)c2=O)C2C=CC1n1c(=O)n(-c3ccccc3)c(=O)n12 (stereo unspecified)
// result > 100 µM

// query Entry `C[C@@H]1CCN(C(=O)CC#N)C[C@@H]1N(C)c1ncnc2[nH]ccc12` needs its TGI filled in; supply it.
// result > 100 µM

// query Provide only the value of recorded TGI for `CC(=S)NNC(=O)c1ccncc1`
// result > 100 µM

// query Could you please provide reported TGI for `C/C=C/[C@@H]1O[C@H](CC#C[Si](C)(C)C)[C@@]2(C=O)C(C)=CC[C@H](C(C)C)[C@@H]12` ? Thanks!
// result 35.2 µM
